# Tested on: human IgG-Fc
# MEASUREMENT NOTES: Cellulose-immobilized 13-mer peptide variants incubated with human IgG-Fc, anti-human IgG-AP detection
# Type: binding
# Design: key: No binding of immunoglobulin for the defined peptide variant, detection negative: 0; Binding of immunoglobulin for the defined peptide variant, detection positive: +
# REPORTED CONDITIONS: IgG-Fc 1 μg/ml in blocking buffer, 3 h room temperature
Square brackets hold non-standard residues; d marks the D form. Ends that are not written are not given here. βAla = NCCC(=O)O
ASSAY ENDPOINT: Result for incubation with human IgG-Fc (immunoglobulin binding detection)
Give bare numbers.

Quick note, Result for incubation with human IgG-Fc (immunoglobulin binding detection) for 02I: cellulose-bound 13-mer variant DIAWHLGELVWCT-(βA)(βA) (DIAWHLGELVWCT[βAla][βAla]; not fully specified; printed as DIAWHLGELVWCT-(βA)(βA); also: cellulose-bound) landed at 0

----------
# System: serum albumin
# MEASUREMENT NOTES: Cellulose-immobilized 13-mer peptide variants incubated with serum albumin (negative control), anti-human IgG-AP detection
# Type: binding
# Parameters: key: No binding of immunoglobulin for the defined peptide variant, detection negative: 0; Binding of immunoglobulin for the defined peptide variant, detection positive: +
# REPORTED CONDITIONS: blocking buffer without addition, 3 h room temperature
Bridge positions count the residues as written; N and C are the ends. Ends that are not written are not given here. cellulose = not defined here; βAla = NCCC(=O)O
ASSAY ENDPOINT: Result for incubation with serum albumin (immunoglobulin binding detection)
Numbers only.

Recorded Result for incubation with serum albumin (immunoglobulin binding detection), per entry:
{"columns": ["SUBSTANCE", "RESULT VALUE"],
 "data": [
  ["08F: cellulose-bound 13-mer variant DCAWHLGFLVWCT-(βA)(βA) (DCAWHLGFLVWCT-{βAla-βAla-cellulose}; disulfide 2-12 (inferred); not fully specified (N-terminus); printed as DCAWHLGFLVWCT-(βA)(βA); reading uncertain)", 0],
  ["12E: cellulose-bound 13-mer variant DCAWHLGELVWET-(βA)(βA) (DCAWHLGELVWET-{βAla-βAla-cellulose}; not fully specified; printed as DCAWHLGELVWET-(βA)(βA); reading uncertain)", 0]
]}

# ---- query substance ----
Quick note, Result for incubation with serum albumin (immunoglobulin binding detection) for 11R: cellulose-bound 13-mer variant DCAWHLGELVRCT-(βA)(βA) landed at 0

----------
# Tested on: immunoglobulins in human plasma
# MEASUREMENT NOTES: Cellulose-immobilized 13-mer peptide variants incubated with human plasma, anti-human IgG-AP detection
# Format: binding
# Design: key: No binding of immunoglobulin for the defined peptide variant, detection negative: 0; Binding of immunoglobulin for the defined peptide variant, detection positive: +
# REPORTED CONDITIONS: human plasma as sample, diluted 1:10,000 in blocking buffer, 3 h room temperature
Bridge positions count the residues as written; N and C are the ends. Square brackets hold non-standard residues; d marks the D form. Ends that are not written are not given here. cellulose = not defined here; βAla = NCCC(=O)O
What Result for incubation with human plasma (immunoglobulin binding detection) was measured for each of the following?
Give bare numbers.

Recorded Result for incubation with human plasma (immunoglobulin binding detection), per entry:
{"columns": ["SUBSTANCE", "TARGET SYSTEM", "RESULT VALUE"],
 "data": [
  ["11F: cellulose-bound 13-mer variant DCAWHLGELVFCT-(βA)(βA) (DCAWHLGELVFCT-{βAla-βAla-cellulose}; disulfide 2-12 (inferred); reading uncertain; also: printed as DCAWHLGELVFCT-(βA)(βA))", "immunoglobulins in human plasma", 0],
  ["02A: cellulose-bound 13-mer variant DAAWHLGELVWCT-(βA)(βA) (DAAWHLGELVWCT[βAla][βAla]; not fully specified; printed as DAAWHLGELVWCT-(βA)(βA); also: cellulose-bound)", "immunoglobulins in human plasma", 0]
]}

# ---- query substance ----
Quick note, Result for incubation with human plasma (immunoglobulin binding detection) for 05F: cellulose-bound 13-mer variant DCAWFLGELVWCT-(βA)(βA) (disulfide 2-12 (inferred); not fully specified (N-terminus, C-terminus); printed as DCAWFLGELVWCT-(βA)(βA); also: cellulose-bound) landed at 0

----------
# System: human IgG-Fc
# MEASUREMENT NOTES: Cellulose-immobilized 13-mer peptide variants incubated with human IgG-Fc, anti-human IgG-AP detection
# Type: binding
# Parameters: key: No binding of immunoglobulin for the defined peptide variant, detection negative: 0; Binding of immunoglobulin for the defined peptide variant, detection positive: +
# REPORTED CONDITIONS: IgG-Fc 1 μg/ml in blocking buffer, 3 h room temperature
Bridge positions count the residues as written; N and C are the ends. Ends that are not written are not given here. cellulose = not defined here; βAla = NCCC(=O)O
ASSAY ENDPOINT: Result for incubation with human IgG-Fc (immunoglobulin binding detection)
Give bare numbers.

{"columns": ["SUBSTANCE", "RESULT VALUE"],
 "data": [
  ["11C: cellulose-bound 13-mer variant DCAWHLGELVCCT-(βA)(βA) (DCAWHLGELVCCT-{βAla-βAla-cellulose}; not fully specified (bridges); printed as DCAWHLGELVCCT-(βA)(βA); cysteine pairing not given here; reading uncertain)", 0]
]}

# ---- query substance ----
Quick note, Result for incubation with human IgG-Fc (immunoglobulin binding detection) for 10P: cellulose-bound 13-mer variant DCAWHLGELPWCT-(βA)(βA) (DCAWHLGELPWCT-{βAla-βAla-cellulose}; disulfide 2-12 (inferred); reading uncertain; also: printed as DCAWHLGELPWCT-(βA)(βA)) landed at 0

----------
What Result for incubation with human IgG-Fc (immunoglobulin binding detection) was measured for each of the following?
# System: human IgG-Fc
# MEASUREMENT NOTES: Cellulose-immobilized 13-mer peptide variants incubated with human IgG-Fc, anti-human IgG-AP detection
# Format: binding
# Design: key: No binding of immunoglobulin for the defined peptide variant, detection negative: 0; Binding of immunoglobulin for the defined peptide variant, detection positive: +
# REPORTED CONDITIONS: IgG-Fc 1 μg/ml in blocking buffer, 3 h room temperature
Bridge positions count the residues as written; N and C are the ends. Square brackets hold non-standard residues; d marks the D form. Ends that are not written are not given here. cellulose = not defined here; βAla = NCCC(=O)O
Give bare numbers.

Recorded Result for incubation with human IgG-Fc (immunoglobulin binding detection), per entry:
{"columns": ["SUBSTANCE", "TARGET SYSTEM", "RESULT VALUE"],
 "data": [
  ["07Y: cellulose-bound 13-mer variant DCAWHLYELVWCT-(βA)(βA) (DCAWHLYELVWCT-{βAla-βAla-cellulose}; disulfide 2-12 (inferred); not fully specified (N-terminus); printed as DCAWHLYELVWCT-(βA)(βA); reading uncertain)", "human IgG-Fc", 0],
  ["05P: cellulose-bound 13-mer variant DCAWPLGELVWCT-(βA)(βA) (disulfide 2-12 (inferred); not fully specified (N-terminus, C-terminus); printed as DCAWPLGELVWCT-(βA)(βA); also: cellulose-bound)", "human IgG-Fc", 0],
  ["09S: cellulose-bound 13-mer variant DCAWHLGESVWCT-(βA)(βA) (DCAWHLGESVWCT-{βAla-βAla-cellulose}; disulfide 2-12 (inferred); reading uncertain; also: printed as DCAWHLGESVWCT-(βA)(βA))", "human IgG-Fc", 0],
  ["06C: cellulose-bound 13-mer variant DCAWHCGELVWCT-(βA)(βA) (DCAWHCGELVWCT[βAla][βAla]; not fully specified (N-terminus); printed as DCAWHCGELVWCT-(βA)(βA); cysteine pairing not given here; also: cellulose-bound)", "human IgG-Fc", 0],
  ["04P: cellulose-bound 13-mer variant DCAPHLGELVWCT-(βA)(βA) (disulfide 2-12 (inferred); not fully specified (N-terminus, C-terminus); printed as DCAPHLGELVWCT-(βA)(βA); also: cellulose-bound)", "human IgG-Fc", 0]
]}

Quick note, Result for incubation with human IgG-Fc (immunoglobulin binding detection) for 01W: cellulose-bound 13-mer variant WCAWHLGELVWCT-(βA)(βA) (WCAWHLGELVWCT-{βAla-βAla-cellulose}; disulfide 2-12 (inferred); reading uncertain; also: printed as WCAWHLGELVWCT-(βA)(βA)) landed at 0

----------
# Tested on: human IgG-Fc
# MEASUREMENT NOTES: Cellulose-immobilized 13-mer peptide variants incubated with human IgG-Fc, anti-human IgG-AP detection
# Assay type: binding
# Parameters: key: No binding of immunoglobulin for the defined peptide variant, detection negative: 0; Binding of immunoglobulin for the defined peptide variant, detection positive: +
# REPORTED CONDITIONS: IgG-Fc 1 μg/ml in blocking buffer, 3 h room temperature
Bridge positions count the residues as written; N and C are the ends. Ends that are not written are not given here. cellulose = not defined here; βAla = NCCC(=O)O
ASSAY ENDPOINT: Result for incubation with human IgG-Fc (immunoglobulin binding detection)
Answers are plain numbers.

{"columns": ["SUBSTANCE", "RESULT VALUE"],
 "data": [
  ["05L: cellulose-bound 13-mer variant DCAWLLGELVWCT-(βA)(βA) (disulfide 2-12 (inferred); not fully specified (N-terminus, C-terminus); printed as DCAWLLGELVWCT-(βA)(βA); also: cellulose-bound)", 0],
  ["10K: cellulose-bound 13-mer variant DCAWHLGELKWCT-(βA)(βA) (DCAWHLGELKWCT-{βAla-βAla-cellulose}; disulfide 2-12 (inferred); reading uncertain; also: printed as DCAWHLGELKWCT-(βA)(βA))", 0]
]}

# ---- query substance ----
Quick note, Result for incubation with human IgG-Fc (immunoglobulin binding detection) for 10G: cellulose-bound 13-mer variant DCAWHLGELGWCT-(βA)(βA) (DCAWHLGELGWCT-{βAla-βAla-cellulose}; disulfide 2-12 (inferred); reading uncertain; also: printed as DCAWHLGELGWCT-(βA)(βA)) landed at 0
